# experimental_target: DCAF1 WD40 domain (residues 1077-1390) (Homo sapiens)
# Construct: DCAF1 WD40 domain (residues 1077-1390)
# test_description: DCAF1 binding assay by SPR (Biacore 8K+), DCAF1-3 KD
# applied_conditions: 25 °C, read-out: DCAF1-3 SPR (KD)
# Kd values compiled below
assay_readout: Kd

# compound, experimental_target, obs_value
rows = [
    ("OCCc1cccc(N2CCC[C@@H](Nc3cc(N4CCOCC4)ccn3)C2)c1 [I-861]", "DCAF1 WD40 domain (residues 1077-1390) (Homo sapiens)", "10 to 100 µM"),
    ("Fc1cccc(N2CCC[C@@H]3[C@H]2CCN3c2cc(N3CC4CC(C4)C3)ccn2)c1 [I-623]", "DCAF1 WD40 domain (residues 1077-1390) (Homo sapiens)", "< 10 µM"),
    ("N[C@@H](c1cncc(N2CCC[C@@H](Nc3cc(N4CCOCC4)ccn3)C2)c1)C1CC1 [I-485]", "DCAF1 WD40 domain (residues 1077-1390) (Homo sapiens)", "> 200 µM"),
    ("NCCOCCOCCOCCC1CCN(c2ccnc(N3CC[C@@H]4[C@H]3CCCN4c3cccc(F)c3)c2)CC1 [I-649]", "DCAF1 WD40 domain (residues 1077-1390) (Homo sapiens)", "< 10 µM"),
    ("C=C1CCCN(c2ccnc(N[C@@H]3CCCN(c4cccc(F)c4)C3)c2)C1=O [I-461]", "DCAF1 WD40 domain (residues 1077-1390) (Homo sapiens)", "> 200 µM"),
    ("Cc1c(F)ccc(F)c1-c1[nH]ncc1C(=O)N[C@@H](CC(=O)N1CCN(C(=O)OCc2ccccc2)CC1)c1cccc(Cl)c1 [I-884]", "DCAF1 WD40 domain (residues 1077-1390) (Homo sapiens)", "< 10 µM"),
    ("Fc1cccc(N2CCC[C@@H](Nc3cc(N4C[C@H]5C[C@@H]4CO5)ncn3)C2)c1 [I-310]", "DCAF1 WD40 domain (residues 1077-1390) (Homo sapiens)", "> 200 µM"),
    ("COCCN1CCN(c2ccnc(N[C@@H]3CCCN(c4cccc(F)c4)C3)n2)CC1 [I-320]", "DCAF1 WD40 domain (residues 1077-1390) (Homo sapiens)", "10 to 100 µM"),
    ("N#Cc1[nH]cc(C(=O)N[C@@H](CC(N)=O)c2cccc(Cl)c2)c1-c1ccccc1F [I-598]", "DCAF1 WD40 domain (residues 1077-1390) (Homo sapiens)", "< 10 µM"),
    ("NC(=O)C[C@H](NC(=O)c1c[nH]c(C(=O)c2ccccc2)c1-c1c(F)c(F)cc(F)c1F)c1cccc(Cl)c1 [I-949]", "DCAF1 WD40 domain (residues 1077-1390) (Homo sapiens)", "< 10 µM"),
    ("Cc1[nH]cc(C(=O)N[C@@H](CC(N)=O)c2cccc(Cl)c2)c1-c1c(F)cccc1F [I-585]", "DCAF1 WD40 domain (residues 1077-1390) (Homo sapiens)", "< 10 µM"),
    ("NC(=O)C[C@H](NC(=O)CCc1nc2c(F)cccc2[nH]1)c1cccc(Cl)c1 [I-441]", "DCAF1 WD40 domain (residues 1077-1390) (Homo sapiens)", "> 200 µM"),
    ("c1cc(N2CCC[C@@H](Nc3cc(N4CCOCC4)ncn3)C2)c2ccncc2c1 [I-394]", "DCAF1 WD40 domain (residues 1077-1390) (Homo sapiens)", "> 200 µM"),
]

* * *

# experimental_target: DCAF1 WD40 domain (residues 1077-1390) (Homo sapiens, UniProt Q9Y4B6)
# Construct: DCAF1 WD40 domain (residues 1077-1390)
# Sequence (Q9Y4B6 1077-1390): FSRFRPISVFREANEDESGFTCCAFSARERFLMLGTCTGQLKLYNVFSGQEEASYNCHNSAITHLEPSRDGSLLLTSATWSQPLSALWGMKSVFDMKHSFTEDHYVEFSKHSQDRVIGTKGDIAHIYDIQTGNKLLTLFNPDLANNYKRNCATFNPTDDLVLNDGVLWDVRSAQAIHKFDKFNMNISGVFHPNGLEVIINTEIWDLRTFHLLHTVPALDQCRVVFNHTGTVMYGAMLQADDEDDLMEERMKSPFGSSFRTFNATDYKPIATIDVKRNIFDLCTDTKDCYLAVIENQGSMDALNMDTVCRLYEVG
# test_description: DCAF1 binding assay by SPR (Biacore 8K+), DCAF1-3 KD
# applied_conditions: 25 °C, read-out: DCAF1-3 SPR (KD)
pKd: −log10 of the molar value.
assay_readout: pKd

# compound, obs_value
records = [
    ("C=CC(=O)N(C)CCN(C)c1ccnc(N[C@@H]2CCCN(c3cccc(F)c3)C2)c1", "< 3.70"),
    ("CC(=O)N(c1cc(N2CCOCC2)ccn1)[C@@H]1CCCN(c2cccc(F)c2)C1", "< 3.70"),
    ("c1cc(C2CC2)cc(N2CCC[C@@H](Nc3cc(N4CCOCC4)ccn3)C2)c1", "4.00 to 5.00"),
    ("Cc1sc2c(c1C)C(c1ccc(Cl)cc1)=N[C@@H](CC(=O)NCCOCCOCCOCCOCCOCC(=O)c1[nH]cc(C(=O)N[C@@H](CC(N)=O)c3cccc(Cl)c3)c1-c1ccccc1F)c1nnc(C)n1-2", "> 5.00"),
    ("CN1CCN(CCC2CCN(c3ccnc(N4CC[C@@H]5[C@H]4CCCN5c4cccc(F)c4)c3)CC2)CC1", "> 5.00"),
    ("COCCc1[nH]cc(C(=O)N[C@@H](CC(N)=O)c2cccc(Cl)c2)c1-c1ccccc1F", "< 3.70"),
    ("Cc1c(F)ccc(F)c1-c1[nH]ncc1C(=O)N[C@@H](CC(=O)N1CCC(O)C1)c1cccc(Cl)c1 (some centres unmarked)", "> 5.00"),
    ("Fc1cccc(N2CCC[C@@H](Nc3cc(N4C5CCCC4CC5)ccn3)C2)c1", "> 5.00"),
    ("N#Cc1cccc(-c2[nH]ncc2C(=O)N[C@@H](CC(N)=O)c2cccc(Cl)c2)c1", "> 5.00"),
    ("COCCC(=O)c1[nH]cc(C(=O)N[C@@H](CC(N)=O)c2cccc(Cl)c2)c1-c1ccccc1F", "> 5.00"),
    ("C=CC(=O)NCCC1CCCN(c2ccnc(N[C@@H]3CCCN(c4cccc(F)c4)C3)c2)C1 (some centres unmarked)", "4.00 to 5.00"),
    ("CSc1ccc(N2CCC[C@@H](Nc3cc(N4CCOCC4)ccn3)C2)c(Cl)c1", "< 3.70"),
    ("Nc1ccc(N2CCC[C@H]3[C@@H]2CCN3c2cc(N3CC4CC(C4)C3)ccn2)cc1F", "4.00 to 5.00"),
    ("C=CC(=O)N1CCC(c2n[nH]cc2C(=O)N[C@@H](CC(N)=O)c2cccc(Cl)c2)=N1", "< 3.70"),
    ("NC(=O)C[C@H](NC(=O)c1cn[nH]c1[C@H]1CCCOC1)c1cccc(Cl)c1", "< 3.70"),
    ("C=CC(=O)N1CCC[C@H](N(C)c2ccnc(N[C@@H]3CCCN(c4cccc(F)c4)C3)c2)C1", "< 3.70"),
    ("O=C1Cc2cnc(N3CCC[C@@H](Nc4cc(N5CCOCC5)ccn4)C3)cc2N1", "< 3.70"),
    ("CCCCCCC[C@@H]1CCCN(c2ccnc(N3CC[C@@H]4[C@H]3CCCN4c3cccc(F)c3)c2)C1", "< 3.70"),
    ("C=CC(=O)NCCOCC1CCN(c2ccnc(N[C@@H]3CCCN(c4cccc(F)c4)C3)c2)CC1", "4.00 to 5.00"),
    ("OCCCc1cccc(N2CCC[C@@H](Nc3cc(N4CCOCC4)ccn3)C2)c1", "4.00 to 5.00"),
    ("NCCOCCOCCOCCOCCOCCOCCC1CCN(c2ccnc(N3CC[C@@H]4[C@H]3CCCN4c3cccc(F)c3)c2)CC1", "> 5.00"),
    ("Fc1cccc(N2CCC[C@@H](Nc3cc(N4CCCCC4)ncn3)C2)c1", "< 3.70"),
    ("N#Cc1cnc(N2CCOCC2)cc1N[C@@H]1CCCN(c2cccc(F)c2)C1", "< 3.70"),
    ("NC(=O)Cc1cccc(N2CCC[C@@H](Nc3cc(N4CCOCC4)ccn3)C2)c1", "< 3.70"),
    ("c1cncc(N2CCC[C@@H](Nc3cc(N4CCOCC4)ncn3)C2)c1", "< 3.70"),
    ("C[C@H]1CC[C@@H](Nc2cc(N3CCOCC3)ncn2)CN1c1cccc(F)c1", "< 3.70"),
]

* * *

# experimental_target: DCAF1 WD40 domain (residues 1077-1390) (Homo sapiens, UniProt Q9Y4B6)
# Construct: DCAF1 WD40 domain (residues 1077-1390)
# test_description: DCAF1 binding assay by SPR (Biacore 8K+), DCAF1-3 KD
# applied_conditions: 25 °C, read-out: DCAF1-3 SPR (KD)

# compound, Kd
rows = [
    ("NC(=O)C[C@H](NC(=O)c1c[nH]nc1-c1cccc2cc[nH]c12)c1cccc(Cl)c1", "> 200 µM"),
    ("Fc1cccc(N2CCC[C@@H](Nc3cc(N4Cc5ccccc5C4)ccn3)C2)c1", "10 to 100 µM"),
    ("NCCCCCCCCCCCCCCCCCC1CCN(c2ccnc(N3CC[C@@H]4[C@H]3CCCN4c3cccc(F)c3)c2)CC1", "> 200 µM"),
    ("C=CC(=O)NCCCCN1CCN(c2ccnc(N[C@@H]3CCCN(c4cccc(F)c4)C3)c2)CC1", "10 to 100 µM"),
    ("c1ccc2c(N3CCC[C@@H](Nc4cc(N5CCOCC5)ccn4)C3)nsc2c1", "10 to 100 µM"),
    ("Fc1cccc(N2CCCC(C3(c4cc(N5CCOCC5)ccn4)CC3)C2)c1 (stereo not shown)", "> 200 µM"),
    ("Fc1cccc(N2CCC[C@@H](Nc3cc(N4CCNCC4)ncn3)C2)c1", "> 200 µM"),
    ("CC1(C)CCCCN1c1ccnc(N[C@@H]2CCCN(c3cccc(F)c3)C2)c1", "10 to 100 µM"),
    ("Cc1sc2c(c1C)C(c1ccc(Cl)cc1)=N[C@@H](CC(=O)NCCCCCCCCCCCCCCCCCC1CCN(c3ccnc(N4CC[C@@H]5[C@H]4CCCN5c4cccc(F)c4)c3)CC1)c1nnc(C)n1-2", "> 200 µM"),
    ("NC(=O)C[C@H](NC(=O)c1c[nH]nc1-c1ccc2[nH]cnc2c1)c1cccc(Cl)c1 [I-356]", "10 to 100 µM"),
    ("Fc1cccc(N2CCC[C@@H](N(CC(F)F)c3cc(N4CCOCC4)ccn3)C2)c1", "> 200 µM"),
    ("C=CC(=O)NCN1CCN(c2ccnc(N[C@@H]3CCCN(c4cccc(F)c4)C3)c2)CC1", "10 to 100 µM"),
    ("O=C(N[C@@H](CC(=O)N1CCNCC1)c1cccc(Cl)c1)c1cn[nH]c1-c1ccccc1F", "< 10 µM"),
    ("NC(=O)CCc1cc(N2CCC[C@H]3[C@@H]2CCN3c2cc(N3CCCCC3)ccn2)ccc1F", "< 10 µM"),
    ("Cc1sc2c(c1C)C(c1ccccc1)=N[C@@H](CC(=O)NCCOCCOCCOCCOCCOCCOCCn1cc(C(=O)N[C@@H](CC(N)=O)c3cccc(Cl)c3)c(-c3ccccc3F)n1)c1nnc(C)n1-2", "> 200 µM"),
    ("Fc1cccc(N2CCC[C@@H](Nc3cc(N4CCOCC4)ncc3C(F)(F)F)C2)c1", "> 200 µM"),
    ("c1cnc(N2CCC[C@@H](Nc3cc(N4CCOCC4)ccn3)C2)nc1", "100 to 200 µM"),
    ("CCCN(c1nccc(N2CCOCC2)n1)[C@@H]1CCCN(c2cccc(F)c2)C1", "> 200 µM"),
    ("c1cc(N2CCOCC2)cc(N[C@@H]2CCCN(c3nccc(N4CCCC4)n3)C2)n1", "10 to 100 µM"),
]
